Reported GI50 values are given for each entry in this list.
tested on: SNB-19; experiment: NCI tumour cell line growth inhibition, 48 h
Calls of active or inactive are those of the source. Cut-off read from the data, not from the text of the source: active = GI50 up to about 1.1 µM and inactive = higher.
observable: GI50

[[record]]
compound = "COc1ccc2c3c1O[C@H](c1ccc(O)cc1)[C@H]3[N+](C)(C)CC2"
assay_system = "SNB-19"
observable = "GI50"
reported_result = "49.2 µM (inactive)"

[[record]]
compound = "COc1c2ccccc2c(OC)c2nc(C)ccc12"
assay_system = "SNB-19"
observable = "GI50"
reported_result = "> 100 µM (inactive)"

[[record]]
compound = "CC(=O)Nc1ccc2nc(N)n[n+]([O-])c2c1"
assay_system = "SNB-19"
observable = "GI50"
reported_result = "> 100 µM (inactive)"

[[record]]
compound = "CC(=O)N(CN1C(=O)CCC1C(=O)O)c1ccccc1 (configuration not stated)"
assay_system = "SNB-19"
observable = "GI50"
reported_result = "> 55.1 µM (inactive)"

[[record]]
compound = "[O-][S+](Nc1ccccc1)c1ccc(-c2ccccc2)cc1 (configuration not stated)"
assay_system = "SNB-19"
observable = "GI50"
reported_result = "> 100 µM (inactive)"

[[record]]
compound = "CCN(C(C)=N)c1ccccc1"
assay_system = "SNB-19"
observable = "GI50"
reported_result = "78.7 µM (inactive)"

[[record]]
compound = "Nc1cc(N)c(/N=N/c2cccc3c(S(=O)(=O)O)cccc23)cc1/N=N/c1cc([N+](=O)[O-])ccc1O"
assay_system = "SNB-19"
observable = "GI50"
reported_result = "48.9 µM (inactive)"

[[record]]
compound = "Cn1c(-c2ccc(C=O)o2)ccc1-c1ccc(C=O)o1"
assay_system = "SNB-19"
observable = "GI50"
reported_result = "54.8 µM (inactive)"

[[record]]
compound = "CCC1(CC)SCc2nc3ccccc3n21"
assay_system = "SNB-19"
observable = "GI50"
reported_result = "53.2 µM (inactive)"

[[record]]
compound = "COc1ccc(C2Cc3cc(OC)c(OC)c(OC)c3C2)cc1 (configuration not stated)"
assay_system = "SNB-19"
observable = "GI50"
reported_result = "55.6 µM (inactive)"

[[record]]
compound = "CC(C)(C)OC[C@H](O)CC#N"
assay_system = "SNB-19"
observable = "GI50"
reported_result = "> 100 µM (inactive)"

[[record]]
compound = "CCN(CC)/C(Cl)=C(Cl)\\C(=C1\\Nc2ccc(OC)cc21)[N+](=O)[O-]"
assay_system = "SNB-19"
observable = "GI50"
reported_result = "61 µM (inactive)"


###

system: Malme-3M; experiment: NCI tumour cell line growth inhibition, 48 h
Active and inactive are the calls of the source. Cut-off read from the data, not from the text of the source: active = GI50 up to about 1.1 µM and inactive = higher.
Reported GI50 values are given for each entry in this list.
observable: GI50

[[record]]
molecule = "CCCCCCCCCCCCCCCCCC(=O)NCC(COP(=O)([O-])OCC[N+](C)(C)C)OC (configuration not stated)"
observable = "GI50"
reported_result = "8.59 µM (inactive)"

[[record]]
molecule = "O=C(Nc1ccccc1)Oc1ccc(C(=S)Nc2ccc(Br)cc2)cc1"
observable = "GI50"
reported_result = "19.2 µM (inactive)"

[[record]]
molecule = "COC(c1ccc(C(C)(C)C)cc1)(c1ccc(C(C)(C)C)cc1)c1cc(C(O)(c2cc(C(OC)(c3ccc(C(C)(C)C)cc3)c3ccc(C(C)(C)C)cc3)c(C)cc2C)c2cc(C(OC)(c3ccc(C(C)(C)C)cc3)c3ccc(C(C)(C)C)cc3)c(C)cc2C)c(C)cc1C"
observable = "GI50"
reported_result = "> 100 µM (inactive)"

[[record]]
molecule = "CC1=NN2C(c3ccc(C)cc3)=CSC2=NC(C)(C)C1"
observable = "GI50"
reported_result = "> 100 µM (inactive)"

[[record]]
molecule = "CC1OC(OC2C(CO)OC(O[C@H]3CC[C@@]4(C)C(=CC[C@H]5[C@@H]6C[C@@H]7O[C@](O)(CC[C@H](CO)COC8OC(CO)C(O)C(O)C8O)[C@@H](C)[C@@H]7[C@@]6(C)CC[C@@H]54)C3)C(OC3OC(C)C(O)C(O)C3O)C2O)C(O)C(O)C1O (some centres not stated)"
observable = "GI50"
reported_result = "> 100 µM (inactive)"

[[record]]
molecule = "CC(C)(C)OC(=O)N1Cc2cc(O)ccc2C[C@H]1C(=O)O"
observable = "GI50"
reported_result = "> 100 µM (inactive)"

[[record]]
molecule = "N=c1oc2c(Cl)cc(Cl)cc2cc1C(=O)Nc1cccc2ccccc12"
observable = "GI50"
reported_result = "26.3 µM (inactive)"


###

test system: OVCAR-4; experiment: NCI tumour cell line growth inhibition, 48 h
Calls of active or inactive are those of the source. No stated cut-off is given here; in the data, active = GI50 up to about 1.1 µM and inactive = higher.
Reported GI50 values are given for each entry in this list.
observable: GI50

[[record]]
molecule = "CC(C)N1CC2CC(CN(C(=O)c3ccccc3)C2)C1.[O-][Cl+3]([O-])([O-])O"
reported_result = "> 100 µM (inactive)"

[[record]]
molecule = "C=CC(C)(C)n1cc(C2=C(O)C(=O)C(c3c(CC=C(C)C)[nH]c4ccccc34)=C(O)C2=O)c2ccccc21"
reported_result = "2.19 µM (inactive)"

[[record]]
molecule = "CCCCCCCC/C=C\\CCCCCCC/C=C1\\C[C@](/C=C/C(=O)OC)(CO)OC1=O"
reported_result = "3.2 µM (inactive)"

[[record]]
molecule = "CCc1cccc(CC)c1NC(=S)NC(=O)c1ccc(Br)cc1"
reported_result = "7.48 µM (inactive)"

[[record]]
molecule = "CCCCOc1ccc(/C=C/C2=[N+](CCO)CCO2)cc1"
reported_result = "> 100 µM (inactive)"

[[record]]
molecule = "CCOc1ccc(C(C)c2cc3c(cc2OC)OCO3)cc1 (stereo not drawn)"
reported_result = "> 100 µM (inactive)"

[[record]]
molecule = "CC(NC(=O)C(=O)N/N=C1\\C[C@@H](c2ccccc2)Nc2ccccc21)c1ccccc1 (stereo partly drawn)"
reported_result = "29.3 µM (inactive)"

[[record]]
molecule = "CCCCCCCCCCCCCCCCCCNc1ccn(C2OC(CO)C(O)C2O)c(=O)n1 (stereo not drawn)"
reported_result = "> 100 µM (inactive)"

[[record]]
molecule = "CO[C@@H]1C[C@H]2[C@@H]3CC[C@H]([C@H](C)COC(C)=O)[C@@]3(C)CC[C@@H]2[C@@]2(C)CC[C@H]3C[C@]312"
reported_result = "> 100 µM (inactive)"

[[record]]
molecule = "C=CCNS(=O)(=O)c1ncnc2[nH]cnc12"
reported_result = "> 100 µM (inactive)"

[[record]]
molecule = "COC(=O)/C=C1/OC(c2ccc(C)cc2C)=CC1=O"
reported_result = "> 10 µM (inactive)"

[[record]]
molecule = "CC1(C)CC2=NO[Se]3=C2C(=NO3)C1"
reported_result = "3.41 µM (inactive)"

[[record]]
molecule = "CCOC(=O)NC(=O)c1cn(CCN2CCN(C(=O)CCCCCCCCCCNc3ncnc4[nH]cnc34)CC2)c(=O)[nH]c1=O"
reported_result = "> 100 µM (inactive)"

[[record]]
molecule = "S=C=NCc1ccccc1 [BENZYL ISOTHIOCYANATE]"
reported_result = "3.8 µM (inactive)"

[[record]]
molecule = "CC(=O)Nc1ccc2nc(N)n[n+]([O-])c2c1"
reported_result = "> 100 µM (inactive)"

[[record]]
molecule = "O=c1c2ccccc2oc2nc3n(c(=O)c12)CCCS3"
reported_result = "> 100 µM (inactive)"

[[record]]
molecule = "CC1C=CC(C)C2(O)C(=O)NC(O)C12 (stereo not drawn)"
reported_result = "> 100 µM (inactive)"

[[record]]
molecule = "CSc1nc2c(nc(N)n2C2OC(COC(C)=O)C(OC(C)=O)C(OC(C)=O)C2OC(C)=O)c(=O)n1C (stereo not drawn)"
reported_result = "> 100 µM (inactive)"


###

Reported GI50 values are given for each entry in this list.
test system: NCI-H522; assay: NCI tumour cell line growth inhibition, 48 h
Activity calls are given as the source filed them. No stated cut-off is given here; in the data, active = GI50 up to about 1.1 µM and inactive = higher.
observable: GI50

[[record]]
compound = "O=C1NC(N/N=C/c2ccccc2)=N/C1=C\\c1ccco1"
observable = "GI50"
reported_result = "26.1 µM (inactive)"

[[record]]
compound = "CC(NC(=O)C(=O)N/N=C1\\C[C@@H](c2ccccc2)Nc2ccccc21)c1ccccc1 (stereo not given in full)"
observable = "GI50"
reported_result = "> 100 µM (inactive)"

[[record]]
compound = "CCN(CC)/C(SCc1ccccc1)=C(\\C(Cl)=C(Cl)Cl)[N+](=O)[O-]"
observable = "GI50"
reported_result = "16.6 µM (inactive)"

[[record]]
compound = "COc1ccc2c3c1O[C@H](c1ccc(O)cc1)[C@H]3[N+](C)(C)CC2"
observable = "GI50"
reported_result = "42.8 µM (inactive)"

[[record]]
compound = "Cc1ccc(C)c(NC(=O)C(=O)CC(=O)c2cccc3ccccc23)c1"
observable = "GI50"
reported_result = "> 100 µM (inactive)"

